# 100 nM Human C5 R885C-mmh Bound (RU) values compiled below
biological target: T1, human C5 R885C-mmh (human, UniProt P01031 19-1676); assay: SPR, mAb captured via anti-hFc, 25C
T1 construct: also called human C5 variant R885C
property.label: 100 nM Human C5 R885C-mmh Bound (RU)

binder	reported.value
H4H12164P (antibody, human IgG4, V domains shown, Human IgG4 Fc with S108P hinge mutation (H4H)) VH: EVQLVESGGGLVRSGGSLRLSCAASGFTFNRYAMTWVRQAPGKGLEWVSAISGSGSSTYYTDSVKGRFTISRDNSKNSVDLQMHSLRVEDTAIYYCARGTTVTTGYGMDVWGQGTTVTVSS VL: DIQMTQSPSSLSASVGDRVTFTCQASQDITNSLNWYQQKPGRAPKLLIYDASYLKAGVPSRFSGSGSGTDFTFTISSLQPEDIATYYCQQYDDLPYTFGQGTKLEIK	249
H4H12168P (antibody, human IgG4, V domains shown, Human IgG4 Fc with S108P hinge mutation (H4H)) VH: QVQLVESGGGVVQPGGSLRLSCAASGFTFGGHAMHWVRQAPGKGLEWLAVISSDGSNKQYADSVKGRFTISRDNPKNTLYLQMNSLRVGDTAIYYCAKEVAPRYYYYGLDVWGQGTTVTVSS VL: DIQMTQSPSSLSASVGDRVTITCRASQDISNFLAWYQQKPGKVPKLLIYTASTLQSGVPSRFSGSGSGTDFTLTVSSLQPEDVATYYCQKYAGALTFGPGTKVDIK	144
H4H12159P (antibody, human IgG4, V domains shown, Human IgG4 Fc with S108P hinge mutation (H4H)) VH: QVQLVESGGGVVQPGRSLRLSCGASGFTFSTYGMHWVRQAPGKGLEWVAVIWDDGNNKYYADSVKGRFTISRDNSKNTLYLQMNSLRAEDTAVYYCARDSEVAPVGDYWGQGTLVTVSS VL: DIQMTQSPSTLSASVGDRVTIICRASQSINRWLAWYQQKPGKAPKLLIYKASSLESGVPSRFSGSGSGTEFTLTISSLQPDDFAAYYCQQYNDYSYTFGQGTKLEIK	168
H4H12171P (antibody, human IgG4, V domains shown, Human IgG4 Fc with S108P hinge mutation (H4H)) VH: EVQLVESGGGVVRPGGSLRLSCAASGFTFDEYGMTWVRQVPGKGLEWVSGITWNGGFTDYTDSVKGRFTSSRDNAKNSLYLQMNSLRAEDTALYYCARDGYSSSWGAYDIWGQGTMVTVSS VL: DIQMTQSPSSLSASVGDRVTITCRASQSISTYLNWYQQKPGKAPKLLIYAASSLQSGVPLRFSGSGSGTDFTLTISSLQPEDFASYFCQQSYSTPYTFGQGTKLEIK	51
H4H12170P (antibody, human IgG4, V domains shown, Human IgG4 Fc with S108P hinge mutation (H4H)) VH: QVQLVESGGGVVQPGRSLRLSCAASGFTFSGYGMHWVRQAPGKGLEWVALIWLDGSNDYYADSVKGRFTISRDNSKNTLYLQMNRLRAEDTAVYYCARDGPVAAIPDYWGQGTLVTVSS VL: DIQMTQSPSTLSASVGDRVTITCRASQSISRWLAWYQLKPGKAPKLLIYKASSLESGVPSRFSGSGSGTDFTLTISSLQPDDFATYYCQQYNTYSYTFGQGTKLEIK	427
H4H12161P (antibody, human IgG4, V domains shown, Human IgG4 Fc with S108P hinge mutation (H4H)) VH: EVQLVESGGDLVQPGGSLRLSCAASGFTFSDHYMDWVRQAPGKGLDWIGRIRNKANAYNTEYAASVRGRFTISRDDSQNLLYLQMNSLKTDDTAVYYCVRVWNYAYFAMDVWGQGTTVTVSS VL: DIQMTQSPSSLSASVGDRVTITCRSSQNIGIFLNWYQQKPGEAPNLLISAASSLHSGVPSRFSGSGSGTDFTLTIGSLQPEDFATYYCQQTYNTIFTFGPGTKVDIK	147
H4H11686N (antibody, V domains shown, also called H2M11686N) VH: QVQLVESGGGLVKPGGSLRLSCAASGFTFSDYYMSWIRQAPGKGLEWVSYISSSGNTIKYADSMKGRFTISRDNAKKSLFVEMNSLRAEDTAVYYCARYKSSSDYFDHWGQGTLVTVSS VL: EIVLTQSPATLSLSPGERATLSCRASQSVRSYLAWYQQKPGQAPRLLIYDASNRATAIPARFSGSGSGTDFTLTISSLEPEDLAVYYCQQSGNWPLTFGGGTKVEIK	253
H4H12163P (antibody, human IgG4, V domains shown, Human IgG4 Fc with S108P hinge mutation (H4H)) VH: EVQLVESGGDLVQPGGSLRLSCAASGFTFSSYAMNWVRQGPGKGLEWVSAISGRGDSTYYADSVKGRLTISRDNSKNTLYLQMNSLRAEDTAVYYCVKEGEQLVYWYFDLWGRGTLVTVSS VL: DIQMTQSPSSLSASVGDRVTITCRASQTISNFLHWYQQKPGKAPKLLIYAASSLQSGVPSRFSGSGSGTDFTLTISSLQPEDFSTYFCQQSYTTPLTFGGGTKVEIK	211
H4H12169P (antibody, human IgG4, V domains shown, Human IgG4 Fc with S108P hinge mutation (H4H)) VH: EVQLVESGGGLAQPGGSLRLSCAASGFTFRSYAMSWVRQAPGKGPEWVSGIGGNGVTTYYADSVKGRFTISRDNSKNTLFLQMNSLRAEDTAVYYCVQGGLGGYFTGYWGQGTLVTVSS VL: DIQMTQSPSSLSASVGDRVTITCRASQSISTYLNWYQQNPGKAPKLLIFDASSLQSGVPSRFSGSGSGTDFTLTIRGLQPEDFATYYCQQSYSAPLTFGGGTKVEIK	168
H4H12175P (antibody, human IgG4, V domains shown, Human IgG4 Fc with S108P hinge mutation (H4H)) VH: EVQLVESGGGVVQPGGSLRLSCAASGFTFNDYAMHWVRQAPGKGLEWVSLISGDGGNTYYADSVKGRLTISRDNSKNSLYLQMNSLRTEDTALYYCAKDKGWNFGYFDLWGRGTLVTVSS VL: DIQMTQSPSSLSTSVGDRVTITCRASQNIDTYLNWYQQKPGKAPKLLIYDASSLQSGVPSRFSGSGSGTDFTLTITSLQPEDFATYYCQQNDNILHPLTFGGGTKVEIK	128
H4H11683N (antibody, V domains shown, also called H2M11683N) VH: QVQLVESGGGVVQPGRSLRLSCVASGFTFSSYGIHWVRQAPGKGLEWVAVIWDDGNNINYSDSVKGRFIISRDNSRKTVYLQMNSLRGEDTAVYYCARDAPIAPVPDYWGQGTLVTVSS VL: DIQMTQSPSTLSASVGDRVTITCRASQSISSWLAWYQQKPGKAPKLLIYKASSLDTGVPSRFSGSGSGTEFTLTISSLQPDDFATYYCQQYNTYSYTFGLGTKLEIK	116
